- TGT: bromodomain protein BRD4 BD1 (Homo sapiens, UniProt O60885)
- Construct: The proteins BRD4 BD1/BD2 used in the experiment were purchased from Active Motif Company (Cat. No. 31380/31446)
- RUN_DESCRIPTION: HTRF in vitro assay, inhibitory activity against BRD4 BD1
- EXPERIMENTAL_SETUP: BRD4(1) 30 nM in final system
pIC50: −log10 of the molar value.
Listing of recorded pIC50 by entry.

# COMPOUND, pIC50
data = [
    ("CC(c1ccccc1)c1cn(C)c(=O)c2cc(-c3cn(C)nc3[N+](=O)[O-])sc12 (centres unmarked) [Compound A41]", "6.00 to 7.00"),
    ("Cc1cc(F)cc(C)c1-n1c(-c2cn(C)c(=O)c3[nH]c(C(=O)Nc4ccn(C)n4)cc23)nc2ncccc21 [Compound A52]", "7.00 to 8.00"),
    ("CC(c1ccccc1)c1cn(C)c(=O)c2[nH]c(-c3cncnc3)cc12 (centres unmarked) [Compound A45]", "7.00 to 8.00"),
    ("CCNC(=O)c1cc2c(C(O)c3ccc4c(ccn4C)c3)cn(C)c(=O)c2[nH]1 (centres unmarked) [Compound A39]", "6.00 to 7.00"),
    ("Cc1ccc(C(C)(C)c2cn(C)c(=O)c3[nH]c(-c4cnn(C5COC5)c4)cc23)cc1 [Compound A69]", "6.00 to 7.00"),
]

[in] Requested field: pIC50. Item: CCNC(=O)c1cc2c(-c3nc4ncccc4n3-c3c(C)cccc3C)cn(C)c(=O)c2[nH]1 [Compound A31]
[out] 7.00 to 8.00

[in] Requested field: pIC50. Item: CC(c1ccccc1)c1cn(C)c(=O)c2cc(-c3cnn(C4COC4)c3)oc12 (centres unmarked) [Compound A59]
[out] 6.00 to 7.00

[in] Requested field: pIC50. Item: CCNC(=O)n1cc2c(Cc3ccccc3)cn(C)c(=O)c2c1 [Compound A3]
[out] 6.00 to 7.00

[in] Requested field: pIC50. Item: Cn1cc(C(CO)c2ccccc2)c2cc(-c3cnn(C4COC4)c3)[nH]c2c1=O (centres unmarked) [Compound A67]
[out] 6.00 to 7.00

[in] Requested field: pIC50. Item: CCNC(=O)c1cc2c(-c3nc4ncccc4n3-c3cc(C)c(F)c(C)c3)cn(C)c(=O)c2[nH]1 [Compound A30]
[out] 7.00 to 8.00

[in] Requested field: pIC50. Item: CCNC(=O)c1cc2c(C(C)c3cccnc3)cn(C)c(=O)c2[nH]1 (centres unmarked) [Compound A11]
[out] 6.00 to 7.00

[in] Requested field: pIC50. Item: CC(c1ccccc1)c1cn(C)c(=O)c2[nH]c(-c3cnn(C4COC4)c3)cc12 (centres unmarked) [Compound A17]
[out] 6.00 to 7.00

[in] Requested field: pIC50. Item: CC(c1ccccc1)c1cn(C)c(=O)c2[nH]c(-c3cnn(C)c3)cc12 (centres unmarked) [Compound A18]
[out] 6.00 to 7.00

[in] Requested field: pIC50. Item: CC(c1ccccc1)c1cn(C)c(=O)c2cc(-c3cn(C)nc3N)sc12 (centres unmarked) [Compound A42]
[out] 6.00 to 7.00

Values from patent US12649735B2
